# Lookup of reported clearance keyed by entry
assay: Clearance in Wistar rat at 1 mg/kg, iv by LC-MS/MS analysis; format: ADME, organism-based; conditions: in vivo
Give just the number in mL/min/kg; leave the unit off.

Please review the entries below; each comes with its answer.
1. O=C(NCCN1CCOCC1)c1ccc(OC2CCN(C3CCC3)CC2)cc1 :: 51
2. CC(C)N1CCC(Oc2ccc(NC(=O)CN3CCOCC3)cc2)CC1.Cl.Cl :: 48
3. Cl.Cl.O=C(CN1CCCC1CO)Nc1ccc(OC2CCN(C3CCC3)CC2)cc1 (configuration not stated) :: 67
4. O=C(Cc1ccncc1)Nc1ccc(OC2CCN(C3CCC3)CC2)cc1.O=C(O)C(O)C(O)C(=O)O :: 113
5. O=C(NCCN1CCCC1)c1ccc(OC2CCN(C3CCCC3)CC2)cc1 :: 156

Q: For the compound shown here, Cl.Cl.O=C(CN1CCCC1)Nc1ccc(OC2CCN(C3CCC3)CC2)cc1 , give the reported clearance.
Ans: 13.6

Q: Please answer likewise for Cl.Cl.O=C(CN1CCOCC1)Nc1ccc(OC2CCN(C3CCC3)CC2)cc1
Ans: 63

---

experiment: Clearance in Beagle dog at 1 mg/kg, iv by LC-MS/MS analysis; type: ADME, organism-based, Canis lupus familiaris; details: in vivo
readout.label: clearance (mL/min/kg)
Give just the number in mL/min/kg; leave the unit off.

Q: For the compound shown here, Cl.Cl.O=C(CN1CCOCC1)Nc1ccc(OC2CCN(C3CCC3)CC2)cc1 , give the reported clearance.
Ans: 36

---

test: Dissociation constant, pKa1 of the compound by potentiometric titration assay; assay type: physicochemical
readout.label: pKa
Output: the number by itself.

1) Cl.Cl.O=C(CN1CCCC1)Nc1ccc(OC2CCN(C3CCC3)CC2)cc1 :: 9.1
2) CC(C)N1CCC(Oc2ccc(NC(=O)CN3CCCCC3)cc2)CC1 :: 9.4
3) Cl.Cl.O=C(CN1CCCCC1)Nc1ccc(OC2CCN(C3CCC3)CC2)cc1 :: 9.2
4) Cl.Cl.O=C(CN1CCCC1CO)Nc1ccc(OC2CCN(C3CCC3)CC2)cc1 (configuration not stated) :: 8.9

Q: For the compound shown here, O=C(CN1CCCCCC1)Nc1ccc(OC2CCN(C3CCC3)CC2)cc1 , give the reported pKa.
Ans: 9.2

Q: Please answer likewise for CC(C)N1CCC(Oc2ccc(NC(=O)CN3CCOCC3)cc2)CC1.Cl.Cl
Ans: 8.9

Q: Please answer likewise for Cl.Cl.O=C(CN1CCOCC1)Nc1ccc(OC2CCN(C3CCC3)CC2)cc1
Ans: 8.5

---

biological target: Cytochrome P450 2C8 (Homo sapiens); assay: Inhibition of CYP2C8 (unknown origin); type: ADME
Sequence (P10632 whole entry): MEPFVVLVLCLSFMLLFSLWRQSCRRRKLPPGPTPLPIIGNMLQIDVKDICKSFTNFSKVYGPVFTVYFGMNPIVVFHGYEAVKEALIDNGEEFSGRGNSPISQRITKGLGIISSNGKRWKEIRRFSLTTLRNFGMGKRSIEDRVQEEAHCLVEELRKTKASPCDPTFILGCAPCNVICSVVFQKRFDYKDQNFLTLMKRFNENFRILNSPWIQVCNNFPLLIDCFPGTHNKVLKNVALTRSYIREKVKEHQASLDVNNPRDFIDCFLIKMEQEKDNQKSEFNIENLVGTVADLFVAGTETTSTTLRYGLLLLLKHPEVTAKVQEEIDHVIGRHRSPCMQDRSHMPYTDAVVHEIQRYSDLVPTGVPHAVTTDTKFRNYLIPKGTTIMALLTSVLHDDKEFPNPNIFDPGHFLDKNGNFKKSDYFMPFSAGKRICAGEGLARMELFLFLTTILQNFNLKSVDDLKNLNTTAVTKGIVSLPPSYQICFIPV
pIC50: −log10 of the molar value.
readout.label: pIC50

Q: For the compound shown here, Cl.Cl.O=C(CN1CCOCC1)Nc1ccc(OC2CCN(C3CCC3)CC2)cc1 , give the reported pIC50.
Ans: < 4.35

---

target: UniProt Q9Y5N1; test: Displacement of [3]-RAMH from recombinant human histamine H3 receptor expressed in CHO-K1 cell membranes after 60 mins by scintillation counting
Sequence (Q9Y5N1 whole entry): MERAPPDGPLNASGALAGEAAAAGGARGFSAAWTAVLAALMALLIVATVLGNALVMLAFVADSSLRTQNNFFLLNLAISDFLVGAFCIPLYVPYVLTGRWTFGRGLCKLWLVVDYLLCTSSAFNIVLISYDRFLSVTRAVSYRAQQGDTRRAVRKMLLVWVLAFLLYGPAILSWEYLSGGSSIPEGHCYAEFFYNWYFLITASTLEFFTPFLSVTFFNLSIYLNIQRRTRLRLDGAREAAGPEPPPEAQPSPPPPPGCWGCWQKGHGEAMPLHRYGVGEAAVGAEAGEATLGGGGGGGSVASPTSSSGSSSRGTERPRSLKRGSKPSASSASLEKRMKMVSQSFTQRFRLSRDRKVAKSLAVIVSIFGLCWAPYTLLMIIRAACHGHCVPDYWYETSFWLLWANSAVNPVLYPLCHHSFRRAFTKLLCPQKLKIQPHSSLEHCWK
Mark MET for Ki under 4 nM, NOT MET if at or over.

Recorded results for 5 compounds are shown here.
1) C[C@@H]1CCCN1Cc1ccc(NC(=O)CN2CCOCC2)cc1 :: NOT MET
2) COc1cc(OC2CCN(C3CCC3)CC2)ccc1NC(=O)CN1CCOCC1 :: NOT MET
3) O=C(NCCN1CCOCC1)c1ccc(OC2CCN(C3CCC3)CC2)cc1 :: MET
4) O=C(CN1CCC(F)(F)CC1)Nc1ccc(OC2CCN(C3CCC3)CC2)cc1 :: NOT MET
5) Cc1cc(OC2CCN(C3CCC3)CC2)ccc1NC(=O)CN1CCC[C@H]1C :: MET

Q: For this compound, is Ki lower than 4 nM? CN(C(=O)CN1CCOCC1)c1ccc(OC2CCN(C3CCC3)CC2)cc1
Ans: NOT MET

Q: Please answer likewise for O=C(NCCN1CCCC1)c1ccc(OC2CCN(C3CCCC3)CC2)cc1
Ans: MET

Q: Please answer likewise for O=C(CN1CCOCC1)Nc1ccc(OC2CCN(C3CCCC3)CC2)cc1
Ans: NOT MET

Q: Please answer likewise for Cc1cc(OC2CCN(C3CCC3)CC2)ccc1NC(=O)CN1CCCCC1
Ans: MET

Q: Please answer likewise for O=C(CN1CCCC1)Nc1ccc(OC2CCN(C3CCCC3)CC2)cc1
Ans: MET

---

test: Partition coefficient, log P of the compound; type: physicochemical; conditions: octanol/water
readout.label: logP
Output: the number by itself.

Please review the entries below; each comes with its answer.
1) CC(C)N1CCC(Oc2ccc(NC(=O)CN3CCOCC3)cc2)CC1.Cl.Cl :: 1.8
2) Cl.Cl.O=C(CN1CCCC1CO)Nc1ccc(OC2CCN(C3CCC3)CC2)cc1 (configuration not stated) :: 2.1

Q: For the compound shown here, Cl.Cl.O=C(CN1CCCCC1)Nc1ccc(OC2CCN(C3CCC3)CC2)cc1 , give the reported logP.
Ans: 3.7

Q: Please answer likewise for O=C(CN1CCCCCC1)Nc1ccc(OC2CCN(C3CCC3)CC2)cc1
Ans: 4.3

Q: Please answer likewise for CC(C)N1CCC(Oc2ccc(NC(=O)CN3CCCCC3)cc2)CC1
Ans: 3.4

Q: Please answer likewise for Cl.Cl.O=C(CN1CCOCC1)Nc1ccc(OC2CCN(C3CCC3)CC2)cc1
Ans: 2.2

Q: Please answer likewise for Cl.Cl.O=C(CN1CCCC1)Nc1ccc(OC2CCN(C3CCC3)CC2)cc1
Ans: 3.2

---

Molecular target: Cytochrome P450 2B6 (Homo sapiens, UniProt P20813)
Sequence (P20813 whole entry): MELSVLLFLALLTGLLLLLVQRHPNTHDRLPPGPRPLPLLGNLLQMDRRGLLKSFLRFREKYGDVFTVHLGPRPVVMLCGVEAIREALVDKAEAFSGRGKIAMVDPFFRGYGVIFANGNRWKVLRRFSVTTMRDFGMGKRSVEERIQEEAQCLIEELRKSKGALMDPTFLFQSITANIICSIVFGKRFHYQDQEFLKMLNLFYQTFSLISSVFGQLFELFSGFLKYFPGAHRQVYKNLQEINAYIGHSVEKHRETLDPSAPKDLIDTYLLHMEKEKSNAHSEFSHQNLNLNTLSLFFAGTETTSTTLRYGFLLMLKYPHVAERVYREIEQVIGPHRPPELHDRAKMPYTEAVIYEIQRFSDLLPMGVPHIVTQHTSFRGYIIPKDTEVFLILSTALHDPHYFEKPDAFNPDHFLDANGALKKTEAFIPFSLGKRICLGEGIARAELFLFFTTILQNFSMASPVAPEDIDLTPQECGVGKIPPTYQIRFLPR
pIC50: −log10 of the molar value.
readout.label: pIC50

Q: For the molecule shown here, Cl.Cl.O=C(CN1CCOCC1)Nc1ccc(OC2CCN(C3CCC3)CC2)cc1 , give the reported pIC50.
Ans: < 4.35

---

experiment: Oral bioavailability in Beagle dog at 3 mg/kg by LC-MS/MS analysis; assay type: ADME, organism-based, Canis lupus familiaris; settings: in vivo
readout.label: bioavailability
Please provide the amount together with its unit, number first.

Q: For the compound shown here, Cl.Cl.O=C(CN1CCOCC1)Nc1ccc(OC2CCN(C3CCC3)CC2)cc1 , give the reported bioavailability.
Ans: 83%

---

experiment: Fraction unbound in rat brain at 1 uM by equilibrium dialysis; format: ADME, tissue-based
readout.label: fraction unbound at 1 µM
Output: the number by itself.

Q: For the compound shown here, Cl.Cl.O=C(CN1CCOCC1)Nc1ccc(OC2CCN(C3CCC3)CC2)cc1 , give the reported fraction unbound at 1 µM.
Ans: 0.57

---

experiment: Volume of distribution at steady state in Wistar rat at 3 mg/kg, po or 1 mg/kg, iv by LC-MS/MS analysis; format: ADME, organism-based; details: Wistar, in vivo, read-out: Vdss
Mark 1 for Vd under 20 L/kg, 0 if at or over.

Recorded results for 4 compounds are shown here.
1. Cc1cc(OC2CCN(C3CCC3)CC2)ccc1NC(=O)CN1CCCC1.Cl.Cl :: 0
2. Cl.Cl.O=C(CN1CCCC1CO)Nc1ccc(OC2CCN(C3CCC3)CC2)cc1 (centres undefined) :: 1
3. O=C(Cc1ccncc1)Nc1ccc(OC2CCN(C3CCC3)CC2)cc1.O=C(O)C(O)C(O)C(=O)O :: 1
4. O=C(NCCN1CCCC1)c1ccc(OC2CCN(C3CCCC3)CC2)cc1 :: 0

Q: For this compound, is Vd lower than 20 L/kg? O=C(NCCN1CCOCC1)c1ccc(OC2CCN(C3CCC3)CC2)cc1
Ans: 0

Q: Please answer likewise for CC(C)N1CCC(Oc2ccc(NC(=O)CN3CCOCC3)cc2)CC1.Cl.Cl
Ans: 1

Q: Please answer likewise for Cl.Cl.O=C(CN1CCOCC1)Nc1ccc(OC2CCN(C3CCC3)CC2)cc1
Ans: 1

Q: Please answer likewise for Cl.Cl.O=C(CN1CCCC1)Nc1ccc(OC2CCN(C3CCC3)CC2)cc1
Ans: 0
